# target.of.assay: Quinolone resistance protein NorA (Staphylococcus aureus)
# Sequence (whole entry): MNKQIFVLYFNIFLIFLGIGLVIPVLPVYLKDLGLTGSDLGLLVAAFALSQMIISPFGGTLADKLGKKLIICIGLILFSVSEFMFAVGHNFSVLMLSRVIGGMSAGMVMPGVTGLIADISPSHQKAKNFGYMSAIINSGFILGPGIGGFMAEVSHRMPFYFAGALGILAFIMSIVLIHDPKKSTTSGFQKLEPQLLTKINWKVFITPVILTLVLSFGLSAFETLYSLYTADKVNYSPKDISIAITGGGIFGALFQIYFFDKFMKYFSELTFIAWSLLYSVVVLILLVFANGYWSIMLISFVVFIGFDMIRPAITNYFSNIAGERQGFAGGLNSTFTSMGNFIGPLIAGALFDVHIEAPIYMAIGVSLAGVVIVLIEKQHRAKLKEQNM
# assay.remarks: Inhibition of NorA efflux pump in Staphylococcus aureus 1199 assessed as concentration required for four-fold reduction in ethidium bromide MIC measured at every 3 mins interval for 30 mins by fluorescence analysis
metric.name: MEC

Notebook entry, Quinolone resistance protein NorA (Staphylococcus aureus) assay: MEC of "CCC(/C=C/C(=O)N1CCC[C@@H]1C(=O)OC)=C\c1ccc2c(c1)OCO2" = ? 25 µg/mL

Notebook entry, Quinolone resistance protein NorA (Staphylococcus aureus) assay: MEC of "CCC(/C=C/C(=O)N[C@@H](Cc1ccccc1)C(=O)OC)=C\c1ccc2c(c1)OCO2" = ? > 50 µg/mL

Notebook entry, Quinolone resistance protein NorA (Staphylococcus aureus) assay: MEC of "COC(=O)CC1(CNC(=O)/C=C/C=C/c2ccc3c(c2)OCO3)CCCCC1" = ? 25 µg/mL

Hey, just so you know, these numbers are from ChEMBL document CHEMBL4477264.
